Target: human PD-L1 (human) (UniProt Q9NZQ7)
Sequence (Q9NZQ7 19-290): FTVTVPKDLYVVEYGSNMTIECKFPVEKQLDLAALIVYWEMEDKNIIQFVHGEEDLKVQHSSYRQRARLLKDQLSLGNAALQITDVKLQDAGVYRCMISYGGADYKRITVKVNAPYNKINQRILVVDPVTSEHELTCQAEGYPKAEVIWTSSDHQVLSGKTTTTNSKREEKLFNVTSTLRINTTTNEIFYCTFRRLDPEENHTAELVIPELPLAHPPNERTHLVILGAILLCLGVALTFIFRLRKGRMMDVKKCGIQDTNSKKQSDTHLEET
Test: flow cytometry, transfected Expi293F cells
Measured MFI of individual entries
Please respond with just the number, no unit label.

Would you please look over these solved cases?
>  <BINDER>
CD80 R29D/Y31L/Q33H/K36G/M38I/T41A/M43R/M47T/E81V/L85R/K89N/A91T/F92P/K93V/R94L/I118V/T120S/T130A/K169E/M174T ECD-Fc (Fc fusion) VIHVTKEVKEVATLSCGHNVSVEELAQTDILWHKEGKIVLAMRSGDTNIWPEYKNRTIFDITNNLSIVILALRPSDEGTYVCVVRKYENDTPVLEHLAEVTLSVKADFPTPSISDFEVPSSNIRRIICSASGGFPEPHLSWLENGEELNAINTTVSQDPETELYAVSSELDFNTTTNHSFMCLIKYGHLRVNQTFNWNTTKQEHFPDN

>  <MFI>
158000

$$$$
>  <BINDER>
CD80 Y53C/L85R/K89N/A91T/F92P/K93V/R94L/I118V/T120S/I127T/T130A/K169E ECD-Fc (Fc fusion) VIHVTKEVKEVATLSCGHNVSVEELAQTRIYWQKEKKMVLTMMSGDMNIWPECKNRTIFDITNNLSIVILALRPSDEGTYECVVRKYENDTPVLEHLAEVTLSVKADFPTPSISDFEVPSSNIRRITCSASGGFPEPHLSWLENGEELNAINTTVSQDPETELYAVSSELDFNMTTNHSFMCLIKYGHLRVNQTFNWNTTKQEHFPDN

>  <MFI>
2550

$$$$

Then this binder:
Query string: Given the entry CD80 H18L/R29D/Y31L/Q33H/K36G/M38I/T41A/M43R/M47T/E81V/L85R/K89N/A91T/F92P/K93V/R94L/F116S/T130A/H188D ECD-Fc (Fc fusion) VIHVTKEVKEVATLSCGLNVSVEELAQTDILWHKEGKIVLAMRSGDTNIWPEYKNRTIFDITNNLSIVILALRPSDEGTYVCVVRKYENDTPVLEHLAEVTLSVKADFPTPSISDSEIPTSNIRRIICSASGGFPEPHLSWLENGEELNAINTTVSQDPETELYAVSSKLDFNMTTNHSFMCLIKYGDLRVNQTFNWNTTKQEHFPDN , report its measured MFI.
Result string: 110000

Provenance of the data: patent US20220177587A1
